- Test target: Mitogen-activated protein kinase 14 (Homo sapiens)
- Sequence (Q16539 whole entry): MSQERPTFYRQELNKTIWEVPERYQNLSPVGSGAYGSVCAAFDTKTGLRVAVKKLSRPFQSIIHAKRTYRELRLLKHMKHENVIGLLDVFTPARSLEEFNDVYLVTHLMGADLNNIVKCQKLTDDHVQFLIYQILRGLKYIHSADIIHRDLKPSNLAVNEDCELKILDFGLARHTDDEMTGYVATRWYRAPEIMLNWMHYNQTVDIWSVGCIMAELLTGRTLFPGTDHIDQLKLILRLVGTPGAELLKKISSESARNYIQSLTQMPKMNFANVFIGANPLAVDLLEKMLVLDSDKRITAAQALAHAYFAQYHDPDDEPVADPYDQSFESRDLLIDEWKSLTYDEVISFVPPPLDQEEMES
- Test: Inhibition of MAPK14 (unknown origin)
pIC50: −log10 of the molar value.

Molecule | Test target | pIC50
O=C(NCc1ncc(C(F)(F)F)cc1Cl)c1ccc2c(c1)C1(CCS(=O)(=O)CC1)[C@H](C1CC1)N2S(=O)(=O)c1ccc(F)cc1 [BAY-784] | Mitogen-activated protein kinase 14 (Homo sapiens) | 4.97

====

- Test target: Mitogen-activated protein kinase 3 (Homo sapiens)
- Sequence (P27361 whole entry): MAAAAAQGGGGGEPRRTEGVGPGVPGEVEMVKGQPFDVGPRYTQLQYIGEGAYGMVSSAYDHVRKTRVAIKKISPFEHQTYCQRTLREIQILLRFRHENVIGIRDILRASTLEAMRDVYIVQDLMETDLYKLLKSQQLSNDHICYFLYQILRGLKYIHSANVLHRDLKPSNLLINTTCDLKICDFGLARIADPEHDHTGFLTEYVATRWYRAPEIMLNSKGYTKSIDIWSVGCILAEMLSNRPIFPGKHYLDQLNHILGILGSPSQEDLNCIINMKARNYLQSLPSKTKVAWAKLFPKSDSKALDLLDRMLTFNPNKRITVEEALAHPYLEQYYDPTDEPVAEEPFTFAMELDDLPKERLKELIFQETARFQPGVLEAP
- Test: Inhibition of MAPK3 (unknown origin)

Cpd smiles | Test target | IC50 / µM
O=C(NCc1ncc(C(F)(F)F)cc1Cl)c1ccc2c(c1)C1(CCS(=O)(=O)CC1)[C@H](C1CC1)N2S(=O)(=O)c1ccc(F)cc1 | Mitogen-activated protein kinase 3 (Homo sapiens) | 4.9

====

Each entry below carries its reported pIC50.
- Test target: Gonadotropin-releasing hormone receptor (Rattus norvegicus)
- Sequence (P30969 whole entry): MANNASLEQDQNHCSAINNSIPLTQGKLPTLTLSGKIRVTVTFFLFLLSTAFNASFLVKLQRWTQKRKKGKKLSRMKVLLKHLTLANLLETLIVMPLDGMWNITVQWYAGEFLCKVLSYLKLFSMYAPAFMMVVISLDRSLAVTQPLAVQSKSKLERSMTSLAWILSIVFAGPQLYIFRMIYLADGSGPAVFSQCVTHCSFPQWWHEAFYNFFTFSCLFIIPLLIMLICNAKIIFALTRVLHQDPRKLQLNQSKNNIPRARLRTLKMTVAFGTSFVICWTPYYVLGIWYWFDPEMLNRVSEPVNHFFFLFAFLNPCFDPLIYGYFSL
- Test: Antagonist activity at rat GnRH receptor expressed in CHO-K1 cells assessed as inhibition of LHRH-induced response preincubated for 20 mins followed by LHRH addition and measured after 60 mins by TR-FRET assay
- Format: cell-based
- Condition summary: cho-k1
pIC50: −log10 of the molar value.
Readout label: pIC50

Compound | Experimental value
O=C(NCc1ncccc1Cl)c1ccc2c(c1)C1(CCS(=O)(=O)CC1)C(C1CC1)N2S(=O)(=O)c1ccc(F)cc1 (stereo in doubt; 4a) | 7.40
CC1N(S(=O)(=O)c2ccc(F)cc2)c2ccc(C(=O)NCc3ccccc3Cl)cc2C12CCNCC2 (stereo in doubt) | 7.57

====

- Test: Lipophilicity, log D of the compound in pH 7.5 MeCN/H2O solution by reversed-phase HPLC analysis
- Type: physicochemical

Compound | chromatographic logD
O=C(NCc1ncc(C(F)(F)F)cc1Cl)c1ccc2c(c1)C1(CCS(=O)(=O)CC1)[C@H](C1CC1)N2S(=O)(=O)c1ccc(F)cc1 [BAY-784] | 3.6
CC(=O)N1CCC2(CC1)c1cc(C(=O)NCc3ccccc3Cl)ccc1N(S(=O)(=O)c1ccc(F)cc1)C2C (racemic) | 3.25
CC1N(S(=O)(=O)c2ccc(F)cc2)c2ccc(C(=O)NCc3ccccc3Cl)cc2C12CCNCC2 (stereo in doubt; 3a) | 2.8
COc1ccc(S(=O)(=O)N2c3ccc(C(=O)NCc4ccccc4Cl)cc3C(C)(C)C2C)cc1 (stereo in doubt; 1a) | 3.8
O=C(NCc1ncccc1Cl)c1ccc2c(c1)C1(CCS(=O)(=O)CC1)C(C1CC1)N2S(=O)(=O)c1ccc(F)cc1 (stereo in doubt; 4a) | 3

====

- Test: Maximum oral bioavailability in rat liver microsomes based well stirred liver model at 1 uM measured after 2 to 60 mins in presence of NADP generating system by LC-MS/MS analysis
- Assay type: ADME, Microsome
- Condition summary: time 2-60 min, read-out: Fmax
Readout label: Fh at 1 µM (%)

Cpd smiles | Readout label | Experimental value
O=C(NCc1ncc(C(F)(F)F)cc1Cl)c1ccc2c(c1)C1(CCS(=O)(=O)CC1)[C@H](C1CC1)N2S(=O)(=O)c1ccc(F)cc1 | Fh at 1 µM | 91

====

- Test: Apparent permeability across apical to basolateral side in human Caco2 cells at 2 uM measured after 2 hrs by LC-MS/MS analysis
- Format: ADME, cell-based
- Condition summary: Caco-2
Readout label: Papp A→B at 2 h, 2 µM

Cpd smiles | Readout label | Experimental value
O=C(NCc1ncc(C(F)(F)F)cc1Cl)c1ccc2c(c1)C1(CCS(=O)(=O)CC1)[C@H](C1CC1)N2S(=O)(=O)c1ccc(F)cc1 | Papp A→B at 2 h, 2 µM | 1.3 ×10⁻⁶ cm/s

====

- Test target: Gonadotropin-releasing hormone receptor (Homo sapiens)
- Test: Antagonist activity at human GnRH receptor expressed in CHO-K1 cells assessed as inhibition of buserelin-induced response preincubated for 20 mins followed by buserelin addition and measured after 60 mins by TR-FRET assay
- Type: cell-based
- Condition summary: cho-k1
pIC50: −log10 of the molar value.
Readout label: pIC50

Compound | Test target | Experimental value
CC1N(S(=O)(=O)c2ccc(F)cc2)c2ccc(C(=O)NCc3ccccc3Cl)cc2C12CCNCC2 (stereo in doubt; 3a) | Gonadotropin-releasing hormone receptor (Homo sapiens) | 6.76

====

- Test: Maximum oral bioavailability in Han Wistar rat hepatocytes at 1 uM measured after 2 to 90 mins by LC-MS/MS analysis
- Format: ADME, Hepatocyte
- Condition summary: time 2-90 min, read-out: Fmax

Cpd smiles | Fh at 1 µM
O=C(NCc1ncc(C(F)(F)F)cc1Cl)c1ccc2c(c1)C1(CCS(=O)(=O)CC1)[C@H](C1CC1)N2S(=O)(=O)c1ccc(F)cc1 | 82%

====

- Test: Intrinsic clearance in Han Wistar rat hepatocytes at 1 uM measured up to 90 mins by LC/MS/MS analysis
- Assay type: ADME, cell-based, Hepatocyte
- Condition summary: Han Wistar, read-out: CLH (converted)
Flag rule - CLint scaled at 1 µM less than 10 mL/min/kg flags label 1; the remaining entries get label 0.

Compound | Category
CC(=O)N1CCC2(CC1)c1cc(C(=O)NCc3ncccc3Cl)ccc1N(S(=O)(=O)c1ccc(F)cc1)C2C (single isomer, unassigned) | label 0
O=C(NCc1ncccc1Cl)c1ccc2c(c1)C1(CCS(=O)(=O)CC1)C(C1CC1)N2S(=O)(=O)c1ccc(F)cc1 (stereo in doubt) | label 1
O=C(NCc1ncc(C(F)(F)F)cc1Cl)c1ccc2c(c1)C1(CCS(=O)(=O)CC1)[C@H](C1CC1)N2S(=O)(=O)c1ccc(F)cc1 | label 0
COc1ccc(S(=O)(=O)N2c3ccc(C(=O)NCc4ccccc4Cl)cc3C(C)(C)C2C)cc1 (stereo in doubt; 1a) | label 0
CC1N(S(=O)(=O)c2ccc(F)cc2)c2ccc(C(=O)NCc3ccccc3Cl)cc2C12CCNCC2 (stereo in doubt) | label 0

====

- Test: Maximum oral bioavailability in cynomolgus monkey hepatocytes
- Type: ADME, Macaca fascicularis, Hepatocyte
- Condition summary: read-out: Fmax

Cpd smiles | Fh
O=C(NCc1ncc(C(F)(F)F)cc1Cl)c1ccc2c(c1)C1(CCS(=O)(=O)CC1)[C@H](C1CC1)N2S(=O)(=O)c1ccc(F)cc1 | 72%

====

- Test: Maximum oral bioavailability in human hepatocytes
- Assay type: ADME, Hepatocyte
- Condition summary: read-out: Fmax

Cpd smiles | Fh
O=C(NCc1ncc(C(F)(F)F)cc1Cl)c1ccc2c(c1)C1(CCS(=O)(=O)CC1)[C@H](C1CC1)N2S(=O)(=O)c1ccc(F)cc1 | 93%

====

- Test target: Gonadotropin-releasing hormone receptor (Homo sapiens, UniProt P30968)
- Sequence (P30968 whole entry): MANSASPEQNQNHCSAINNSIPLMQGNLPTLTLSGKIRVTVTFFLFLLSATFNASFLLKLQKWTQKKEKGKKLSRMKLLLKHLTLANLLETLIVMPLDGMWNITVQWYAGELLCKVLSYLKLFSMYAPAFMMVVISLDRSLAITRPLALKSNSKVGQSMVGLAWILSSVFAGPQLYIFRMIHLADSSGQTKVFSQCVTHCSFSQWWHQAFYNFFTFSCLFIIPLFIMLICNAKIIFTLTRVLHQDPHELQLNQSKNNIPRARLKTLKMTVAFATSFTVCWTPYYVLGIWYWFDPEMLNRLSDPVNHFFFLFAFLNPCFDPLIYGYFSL
- Test: Antagonist activity at human GnRH receptor expressed in CHO-K1 cells assessed as inhibition of LHRH-induced response preincubated for 20 mins followed by LHRH addition and measured after 60 mins by TR-FRET assay
- Type: cell-based
- Condition summary: cho-k1

Compound | Test target | IC50 [nM]
CC1N(S(=O)(=O)c2ccc(F)cc2)c2ccc(C(=O)NCc3ccccc3Cl)cc2C12CCNCC2 (stereo in doubt; 3a) | Gonadotropin-releasing hormone receptor (Homo sapiens, UniProt P30968) | 99

====

- Test: Half life in Wistar rat at 0.5 mg/kg, iv by LC-MS/MS analysis
- Type: ADME, organism-based
- Condition summary: in vivo
Entries and their half-life
Readout label: half-life (h)

Compound | Readout label | Experimental value
O=C(NCc1ncc(C(F)(F)F)cc1Cl)c1ccc2c(c1)C1(CCS(=O)(=O)CC1)[C@H](C1CC1)N2S(=O)(=O)c1ccc(F)cc1 | half-life | 16
O=C(NCc1ncccc1Cl)c1ccc2c(c1)C1(CCS(=O)(=O)CC1)C(C1CC1)N2S(=O)(=O)c1ccc(F)cc1 (stereo in doubt) | half-life | 2.1
COc1ccc(S(=O)(=O)N2c3ccc(C(=O)NCc4ccccc4Cl)cc3C3(CCN(C(C)=O)CC3)C2C)cc1 (stereo in doubt; form 2) | half-life | 0.82
CC1N(S(=O)(=O)c2ccc(F)cc2)c2ccc(C(=O)NCc3ccccc3Cl)cc2C12CCNCC2 (stereo in doubt) | half-life | 8.1
